Provenance of the data: PubChem BioAssay (NCI)

Tested on: SK-MEL-28 melanoma
ASSAY SUMMARY: NCI-60 one-dose screen, 48 h
SETUP CONDITIONS: 10 µM unless noted
The panel holds about 83,000 compounds, 20% with a hit somewhere; the sample as a whole holds those more often. Active and inactive are the calls of the source. The calls were made as follows: active = growth percent below 10; inactive = the rest.
The categories you may choose from are Y for active, N for inactive

Study these solved cases before continuing.
# COMPOUND, LABEL CLASS
data = [
    ("Clc1cccc(NCOOC2(OOCNc3cccc(Cl)c3)CCCCC2)c1", "N"),
    ("CC(C)=CCC/C(C)=C/C=N\\N=C(/N)N[N+](=O)[O-]", "N"),
]

Query: Called result for COC(=O)[C@@H](C)C[C@H](Cc1ccccc1)NC(=O)c1csc([C@@H](C[C@H](C(C)C)N(C)C(=O)[C@@H](NC(=O)[C@H]2CCCCN2C)C2CCCCC2)OC(C)=O)n1
Response: N

Query: # lookup: test call for Nc1ccc(-c2nc3cc(F)ccc3[se]2)cc1F
Response: N

====

Each entry below lists one item and its recorded growth value.
Test system: ACHN renal
ASSAY SUMMARY: NCI-60 one-dose screen, 48 h (100 = growth as untreated, 0 = no growth, -100 = all killed)
SETUP CONDITIONS: 10 µM unless noted
Compounds without any hit were thinned out: in the full panel of roughly 83,000, 20% have a hit. Activity calls are given as the source filed them. Rule for the calls: active = growth percent below 10; inactive = the rest.

# MOLECULE, MEASUREMENT TYPE, VALUE REPORTED
records = [
    ("COc1ccc(/C=C\\c2cc(OC)c(OC)c(OC)c2)c(NS(=O)(=O)c2ccc(Cl)cc2)c1O", "growth", "25.9% (inactive)"),
    ("COc1ccc2c(c1)c(-c1nc(-c3cn(C)c4ncccc34)cs1)cn2CCN1CCOCC1", "growth", "32.1% (inactive)"),
    ("C=CC[Se]C(=O)c1ccccc1OC(C)=O", "growth", "-26.6% (active)"),
    ("COC(=O)[C@@H](C)C[C@H](Cc1ccccc1)NC(=O)c1csc([C@@H](C[C@H](C(C)C)N(C)C(=O)[C@@H](NC(=O)[C@H]2CCCCN2C)C2CC2)OC(C)=O)n1", "growth", "19.6% (inactive)"),
    ("CCn1nccc1NC(=O)C(=O)c1cn(Cc2ccc(F)cc2)c2cccc(OC)c12", "growth", "85.3% (inactive)"),
]

# growth of O=C(CCCC1CCCCC1)OCC(Cl)(Cl)Cl = 110% (inactive)

For this molecule ( CC12CCC3C(C=CC4=C(N)C(=O)CCC43C)C1CCC2=O (centres undefined) ), measured growth is 88.2% (inactive)

Form: molecule = C=CCCCCCCCCC(=O)[O-].C=CCCCCCCCCC(=O)[O-].[Zn+2] ; growth = 101% (inactive)

Reported growth of N#C[Se]Cc1cc(-c2ccccc2)n(-c2ccc(S(N)(=O)=O)cc2)n1 : 1.16% (active)

====

molecules and their reported growth
Test system: A498 renal
ASSAY SUMMARY: NCI-60 one-dose screen, 48 h (100 = growth as untreated, 0 = no growth, -100 = all killed)
SETUP CONDITIONS: 10 µM
About 83,000 compounds went through this panel and 20% of them were active in at least one assay; those are over-represented in the sample as a whole.
Report the value in % with no unit label.

# MOLECULE, VALUE REPORTED
rows = [
    ("COc1cc(C=Nc2cccc(C(=O)O)c2)ccc1N(CCCl)CCCl", 102),
    ("O=P(N1CC1)(N1CC1)N1CCc2ccccc21", 106),
    ("O=C1C2C(C(=O)[N]1[Hg][c]1cccs1)C1(Cl)C(Cl)=C(Cl)C2(Cl)C1(Cl)Cl (stereo not given)", 124),
    ("Cc1cc(C)cc(Nc2nc3c(s2)CC[C@@]2(C)C3=CC[C@@H]3[C@@H]2CC[C@]2(C)C(=O)CC[C@@H]32)c1", 78),
]

Note: attention shifts to another entry.
Record COc1cc(C=C2c3ccccc3C(=O)c3ccccc32)ccc1OCCCCOc1cc2c(cc1OC)C(=O)N1CCCC1C=N2 (stereo not given) has A498 renal growth equal to -78.6
